pEC50 by entry:
tested on: SARS-CoV-2; assay: Antiviral activity against SARS-Cov-2 USA-WA1/2020 isolate infected in African green monkey Vero E6 cells measured after 48 hrs of postinfection by immunofluorescence assay; format: functional, organism-based; details: Severe acute respiratory syndrome coronavirus 2, USA-WA1/2020, Vero C1008, 48 h
pEC50: −log10 of the molar value.
quantity-kind: pEC50

1) C[C@H](NC(=O)C(c1cccnc1)N(C(=O)c1c[nH]cn1)c1ccc(-c2ccccc2)cc1)c1ccccc1 (stereo partly drawn) ... 4.88
2) C[C@H](NC(=O)C(c1cnccn1)N(C(=O)c1c[nH]cn1)c1ccc(-c2ccccc2)cc1)c1ccccc1 (stereo partly drawn) ... 5.34
3) C[C@H](NC(=O)C(c1cccnc1)N(C(=O)c1ccco1)c1ccc(-n2cccc2)cc1)c1ccccc1 (stereo partly drawn) ... 5.76
4) O=C(NCCCc1ccccc1)C(c1cccnc1)N(C(=O)c1ccco1)c1ccc(-c2ccccc2)cc1 (stereo not drawn) ... 5.69
5) CC(C)C[C@H](NC(=O)OCc1ccccc1)C(=O)N[C@@H](C[C@@H]1CCNC1=O)C(O)S(=O)(=O)O (stereo partly drawn) ... 5.82
6) C[C@H](NC(=O)C(c1cnccn1)N(C(=O)c1ccco1)c1ccc(-c2ccccc2)cc1)c1ccccc1 (stereo partly drawn) ... 6.09
7) C[C@H](NC(=O)C(c1cccnc1)N(C(=O)c1ccco1)c1ccc(-c2ccccc2)cc1)c1ccccc1 (stereo partly drawn) ... 5.79

---

target: Procathepsin L (Homo sapiens, UniProt P07711); assay: Covalent inhibition of Cathepsin L (unknown origin) incubated for 30 mins using FRET substrate measured for 1 hr by FRET-based enzymatic assay
Sequence (P07711 whole entry): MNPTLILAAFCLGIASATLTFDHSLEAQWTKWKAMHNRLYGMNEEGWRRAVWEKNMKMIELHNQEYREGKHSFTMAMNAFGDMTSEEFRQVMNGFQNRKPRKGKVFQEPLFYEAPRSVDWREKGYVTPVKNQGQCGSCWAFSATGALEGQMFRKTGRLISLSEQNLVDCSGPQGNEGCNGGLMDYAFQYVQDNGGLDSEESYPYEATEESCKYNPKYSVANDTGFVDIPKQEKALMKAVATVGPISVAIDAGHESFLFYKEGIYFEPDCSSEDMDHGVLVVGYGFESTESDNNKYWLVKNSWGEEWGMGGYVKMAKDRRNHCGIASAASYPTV
pIC50: −log10 of the molar value.
quantity-kind: pIC50

1) CC(C)C[C@H](NC(=O)OCc1ccccc1)C(=O)N[C@@H](C[C@@H]1CCNC1=O)C(O)S(=O)(=O)O (stereo partly specified) ... ≥ 7.13

---

test: Covalent inhibition of Enterovirus-A17 2Apro incubated for 30 mins using FRET substrate measured for 1 hr by FRET-based enzymatic assay
quantity-kind: IC50

1) CC(C)C[C@H](NC(=O)OCc1ccccc1)C(=O)N[C@@H](C[C@@H]1CCNC1=O)C(O)S(=O)(=O)O (stereo partly specified) ... > 50 µM

---

Documented IC50 across a set of compounds
molecular target: Replicase polyprotein 1ab (Severe acute respiratory syndrome coronavirus 2, UniProt P0DTD1); assay: Non-covalent inhibition of SARS-Cov-2 -Mpro incubated for 30 mins using FRET substrate measured for 1 hr by FRET-based enzymatic assay
quantity-kind: IC50 (µM)

1. C[C@H](NC(=O)[C@@H](c1cccnc1)N(C(=O)c1ccco1)c1ccc(-c2ccccc2)cc1)c1ccccc1 ... 0.2
2. CC(C)(C)CC(C)(C)NC(=O)C(c1cccnc1)N(C(=O)c1ccco1)c1ccc(-c2ccccc2)cc1 (stereo not drawn) ... 2.14
3. C[C@H](NC(=O)C(c1cccnc1)N(C(=O)c1ccco1)c1ccc(-c2cccs2)cc1)c1ccccc1 (stereo partly drawn) ... 0.56
4. O=C(NC1CCCC1)C(c1cccnc1)N(C(=O)c1ccco1)c1ccc(-c2ccccc2)cc1 (stereo not drawn) ... 4.1

---

assay: Covalent inhibition of HCoV-OC43 -Mpro incubated for 30 mins using FRET substrate measured for 1 hr by FRET-based enzymatic assay; design: species or system unidentified human coronavirus
pIC50: −log10 of the molar value.
quantity-kind: pIC50

1) CC(C)C[C@H](NC(=O)OCc1ccccc1)C(=O)N[C@@H](C[C@@H]1CCNC1=O)C(O)S(=O)(=O)O (stereo partly specified) ... ≥ 6.80
